Tested on: OVCAR-4
Assay: NCI tumour cell line growth inhibition, 48 h
Activity calls are given as the source filed them. Rule as the data show it: active = GI50 up to about 1.1 µM and inactive = higher.
Select the matching outcome among 1 (active), 0 (inactive)

For orientation, consider the following solved cases.
CC(C)CC1[C@@H](OCc2ccccc2)COS(=O)N1Cc1ccccc1 (some centres not stated)	0
O=c1c2ncn(C3CC(O)C(CO)O3)c2nnn1Cc1ccccc1[N+](=O)[O-] (configuration not stated)	0

Ask: What did this assay record as the result for `O=C(O)CNCc1c2ccccc2[n+]([O-])c2ccccc12` ?
Result: 0

Ask: What did this assay record as the result for `N=c1oc2c(O)c(O)ccc2cc1C(N)=O` ?
Result: 0

Ask: What did this assay record as the result for `COc1ccc2c3c1O[C@H]1C[C@@H](O)C=C[C@@]31CCN(C)C2` ?
Result: 0

Ask: What did this assay record as the result for O=C(C/C(=N/O)C(=O)NC1=C(Cl)C(=O)c2ccccc2C1=O)CC(c1ccccc1)c1c(O)c2ccccc2oc1=O (configuration not stated) ?
Result: 0

Ask: What did this assay record as the result for `O=C(Nc1ccc(F)cc1)c1cc2ccc(O)cc2o/c1=N\c1cccc(F)c1` ?
Result: 0

Ask: What did this assay record as the result for `COc1ccc(/C(Cl)=C/c2cc(OC)ccc2OC)cc1` ?
Result: 0

Ask: What did this assay record as the result for O=C1C2C(c3ccccc3)NC(c3ccccc3)C1C(c1ccccc1)NC2c1ccccc1 (configuration not stated) ?
Result: 0

Ask: What did this assay record as the result for `O=C(Nc1ccc(Cl)cc1)[C-](C(=O)c1ccc(Br)cc1)[n+]1cccc(-c2ccc(Cl)cc2)n1` ?
Result: 0

Ask: What did this assay record as the result for `COc1ccc(C2(c3ccc(OC)cc3)OC(=O)c3cccc4cccc2c34)cc1` ?
Result: 0

###

Test system: MOLT-4
Assay: NCI tumour cell line growth inhibition, 48 h
Activity calls are given as the source filed them. No stated cut-off is given here; in the data, active = GI50 up to about 1.1 µM and inactive = higher.
Readout Name: GI50

Examples with their reported GI50 follow.
CN(C)c1nc(N(C)C)nc(N(C)CN(C)c2nc(N(C)C)nc(N(C)C)n2)n1	> 100 µM (inactive)
NC(=S)Nc1nc(=S)[nH]c2[nH]ccc12	21.1 µM (inactive)

Moving on to the next compound.
Ask: Assign GI50 to the following record: COC1=CC(=O)C2C(C1=O)[C@@H]1c3ccccc3OC(C)(C)[C@H]21 (stereo partly drawn)
Result: 10.1 µM (inactive)

###

Tested on: HT-29
Assay: NCI tumour cell line growth inhibition, 48 h
Active and inactive are the calls of the source. No stated cut-off is given here; in the data, active = GI50 up to about 1.1 µM and inactive = higher. Square brackets hold non-standard residues; d marks the D form. Peptide text beside a SMILES is read from it. * marks the point of attachment. ξ: configuration not given here. ξF = NC(Cc1ccccc1)C(=O)O; Cbz = O=C(OCc1ccccc1)*; Aib = CC(C)(N)C(=O)O
Select the matching outcome among active, inactive

For orientation, consider the following solved cases.
NC(CCSC(F)F)C(=O)O (configuration not stated)	inactive
CCCCCCCCCCCCCCCC(=O)OCC(O)C1OC(=O)C(O)=C1O (configuration not stated)	inactive
O=C(CCCN1CCC(Nc2ccccc2)(c2nnnn2C2CCCCC2)CC1)c1ccc(F)cc1	inactive
CN1CCN(C)C12C=CC=CC21CC1	inactive
COc1cc(NCC(C#N)C#N)ccc1/N=N/c1ccc([N+](=O)[O-])cc1	inactive
COc1cc(C2c3cc4c(cc3OC(N3CCOCC3)C2C)OCO4)cc(OC)c1O (configuration not stated)	inactive
COC(=O)C1=C(C)NC2=C(C(=O)c3ccccc32)C1c1c[nH]nc1-c1ccccc1 (configuration not stated)	inactive
O=C(NNc1nc(-c2ccccc2)cs1)Nc1ccccc1	inactive
O=c1cnn(C2OC(C(O)CO)C(O)C2O)c(=O)[nH]1 (configuration not stated)	inactive
CSc1ncnc2c1ncn2C1OC(CO)C(O)OC1O (configuration not stated)	active

Ask: What did this assay record as the result for CC(C)(NC(=O)OCc1ccccc1)C(=O)NC(Cc1ccccc1)C(=O)O (configuration not stated) (Cbz-[Aib]-[ξF]-OH) ?
Result: inactive

Ask: What did this assay record as the result for O=C(C/C(=N/O)C(=O)NC1=C(Cl)C(=O)c2ccccc2C1=O)CC(c1ccccc1)c1c(O)c2ccccc2oc1=O (configuration not stated) ?
Result: inactive

Ask: What did this assay record as the result for `C=CCN(c1cc(OC)c2[nH]c(C(=O)OCC)c(C)c2c1[N+](=O)[O-])S(C)(=O)=O` ?
Result: inactive

Ask: What did this assay record as the result for `CN(N=O)C(=N)NC(=O)c1ccccc1` ?
Result: inactive

Ask: What did this assay record as the result for `N#CC(C#N)=c1c2ccccc2c(=C(C#N)C#N)c2ccccc12` ?
Result: inactive

Ask: What did this assay record as the result for `CN1C2CC(=O)CC1[C@H](O)[C@@H]2O` ?
Result: inactive

Ask: What did this assay record as the result for CC/C=C/C(CC)C/C(C)=C\[C@]1(CC)C[C@H](CC)[C@H](CC(=O)O)OO1 (some centres not stated) ?
Result: active

Ask: What did this assay record as the result for `CCN(CC)c1ccc2cc(-c3nnc(-c4ccccc4O)o3)c(=O)oc2c1` ?
Result: inactive

Ask: What did this assay record as the result for COc1cc(C2c3cc4c(cc3[C@@H](NCCN3CCCCC3)C3COC(=O)[C@H]23)OCO4)cc(OC)c1O (some centres not stated) ?
Result: inactive

Ask: What did this assay record as the result for `CCN(CC)CCNc1nc(N)c(C#N)c(C#N)c1C#N` ?
Result: inactive

Ask: What did this assay record as the result for `N#Cc1c(C#N)c(-c2cccc([N+](=O)[O-])c2)n(-c2ccccc2)c1N` ?
Result: inactive

Ask: What did this assay record as the result for `O=C(CCc1ccc(O)c(O)c1)NCCc1cc(O)cc(O)c1` ?
Result: inactive

###

I'd be grateful if you could share measured GI50 for these entries.
Tested on: OVCAR-5
Experiment: NCI tumour cell line growth inhibition, 48 h
Active and inactive are the calls of the source. Rule as the data show it: active = GI50 up to about 1.1 µM and inactive = higher.

Examples with their reported GI50 follow.
O=C1CN2C(Cl)(Cl)C2(c2ccccc2)c2cc(Cl)ccc2N1CC(F)(F)F (stereo not given)	56.1 µM (inactive)
CC(C)(C)OC(=O)NC(Cc1ccc(OC(C)(C)C)cc1)C(=O)N[C@H]1CC[C@H](C(=O)O)C1 (stereo not given in full)	> 100 µM (inactive)
NCc1ccccc1.O=C(O)NCc1ccccc1	30.1 µM (inactive)
CCSCCCCC(c1ccc(O)cc1)C(C)(CC)c1ccc(O)cc1 (stereo not given)	24.4 µM (inactive)

Ask: Assign GI50 to the following record: Cc1cn(CCCCOC(=O)NC(CCCNC(N)=O)C(=O)O)c(=O)[nH]c1=O (stereo not given)
Result: > 100 µM (inactive)

###

Tested on: ACHN
Test: NCI tumour cell line growth inhibition, 48 h
The source made the active and inactive calls. No stated cut-off is given here; in the data, active = GI50 up to about 1.1 µM and inactive = higher.
Readout Name: GI50

Examples with their reported GI50 follow.
COc1ccc(-n2sc3ncc(C)cc3c2=O)cc1	18.3 µM (inactive)
COc1cc(NCC(C#N)C#N)ccc1/N=N/c1ccc([N+](=O)[O-])cc1	> 100 µM (inactive)
C=C1C(=O)O[C@H]2[C@H]1[C@H](OC(=O)/C(C)=C\C)C[C@]1(CO1)[C@@H]1[C@H](OC(C)=O)C=C(C)[C@]21O [EUPAROTIN ACETATE]	10.6 µM (inactive)
COc1cc(/C=C2\CC3C4CC[C@H]5C[C@@H](O)CC[C@]5(C)C4CC[C@]3(C)\C2=N\O)cc(OC)c1OC (stereo not given in full)	6.59 µM (inactive)

Batch of 5 compounds: report GI50 for each.
1. O=S1(=O)CS(=O)(=O)OCCCCCO1
2. Nc1ccc(C2=Nc3ccccc3SC(c3ccccc3O)C2)cc1 (stereo not given)
3. COc1ccc(C2(c3ccc(OC)cc3)OC(=O)c3cccc4cccc2c34)cc1
4. Cc1cn(C2CC(CCCO)C(CO)O2)c(=O)[nH]c1=O (stereo not given)
5. NC(CCc1ncc(-c2ccccc2)s1)C(=O)O (stereo not given)

Result:
> 100 µM (inactive)
42.2 µM (inactive)
7.93 µM (inactive)
> 100 µM (inactive)
> 100 µM (inactive)

Ask: Assign GI50 to the following record: `C=CC(C)(C)n1cc(C2=C(O)C(=O)C(c3cn(C(C)(C)C=C)c4ccccc34)=C(O)C2=O)c2ccccc21`
Result: 3.69 µM (inactive)

###

System: K562
Assay: NCI tumour cell line growth inhibition, 48 h
Active and inactive are the calls of the source. Rule as the data show it: active = GI50 up to about 1.1 µM and inactive = higher.
Select the matching outcome among active, inactive

Ask: What did this assay record as the result for CC1CN1P1(N2CC2C)=NP(N2CC2C)(N2CC2C)=NP(N2CC2C)(N2CC2C)=N1 (configuration not stated) ?
Result: inactive

Ask: What did this assay record as the result for CC(C)(C)OC(=O)NC(Cc1ccc(OC(C)(C)C)cc1)C(=O)N[C@H]1CC[C@H](C(=O)O)C1 (some centres not stated) ?
Result: inactive

Ask: What did this assay record as the result for `O=C1/C(=C2/C(=O)N(c3ccccc3)c3ccccc32)Nc2ccccc21` ?
Result: inactive

Ask: What did this assay record as the result for `COC(=O)CNC(=O)CNC(=O)CSc1nnc(COc2ccc(Cl)cc2)n1-c1ccccc1` ?
Result: inactive

Ask: What did this assay record as the result for CC(C)CCCC(C)[C@H]1CC[C@H]2N/C(=N/c3ccccc3)CCC[C@]12C (some centres not stated) ?
Result: inactive

Ask: What did this assay record as the result for `Cc1ccc2nc3c(C(=O)NCCN(C)C)cccc3cc2c1` ?
Result: inactive
